# TARGET SYSTEM: IL17-RE-IL-17C (Homo sapiens, UniProt Q8NFR9+Q9P0M4)
# Sequence (Q9P0M4 whole entry): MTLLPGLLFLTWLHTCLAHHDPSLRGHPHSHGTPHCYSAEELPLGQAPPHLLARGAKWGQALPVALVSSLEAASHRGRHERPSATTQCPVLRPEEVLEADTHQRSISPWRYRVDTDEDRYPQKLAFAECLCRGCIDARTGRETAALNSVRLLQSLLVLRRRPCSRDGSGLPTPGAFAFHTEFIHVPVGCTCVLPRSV
# Sequence (Q8NFR9 whole entry): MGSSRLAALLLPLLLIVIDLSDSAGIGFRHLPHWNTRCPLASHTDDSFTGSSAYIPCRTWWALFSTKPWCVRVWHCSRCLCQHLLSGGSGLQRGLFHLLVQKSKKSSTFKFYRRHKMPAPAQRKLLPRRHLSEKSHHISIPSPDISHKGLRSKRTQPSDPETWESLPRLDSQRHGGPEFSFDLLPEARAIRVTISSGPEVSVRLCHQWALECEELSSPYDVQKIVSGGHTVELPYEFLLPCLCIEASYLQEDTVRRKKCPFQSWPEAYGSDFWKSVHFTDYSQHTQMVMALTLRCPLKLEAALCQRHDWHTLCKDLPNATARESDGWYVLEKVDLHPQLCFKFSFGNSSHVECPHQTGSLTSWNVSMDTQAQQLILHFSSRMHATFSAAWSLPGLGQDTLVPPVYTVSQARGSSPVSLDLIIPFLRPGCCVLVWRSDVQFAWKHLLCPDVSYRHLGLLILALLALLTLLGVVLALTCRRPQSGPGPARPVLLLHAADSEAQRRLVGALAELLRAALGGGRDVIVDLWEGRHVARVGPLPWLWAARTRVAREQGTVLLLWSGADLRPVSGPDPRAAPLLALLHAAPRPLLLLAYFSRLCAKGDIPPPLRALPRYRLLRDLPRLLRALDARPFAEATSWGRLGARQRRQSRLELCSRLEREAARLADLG
# TEST DETAILS: Inhibition of IL-17C/IL-17RE interaction (unknown origin) incubated for 1.5 hrs by ELISA method
Starred links: 1 amine or outer side, 2 acyl side, 3 side chain; linkers in the order of their positions; H or OH if unused. Positions of bridges follow the written chain, without caps; N, C: chain ends. Residues, ends and D or L forms follow the SMILES beside them. CO = O=C([*:1])[*:2]

COMPOUND	TARGET SYSTEM	INEQUALITY SYMBOL	IC50 / µM
CC(C)C[C@@H]1NC(=O)[C@H](C)NC(=O)[C@H](CCCNC(=N)N)NC(=O)[C@H](Cc2ccc(O)cc2)NC(=O)[C@H](Cc2ccc(O)cc2)NC(=O)[C@H](Cc2c[nH]cn2)NC(=O)[C@H](Cc2c[nH]cn2)NC(=O)[C@H](Cc2ccc(O)cc2)NC(=O)SC[C@@H](C(=O)NCC(N)=O)NC(=O)CNC(=O)[C@H](CC(C)C)NC(=O)[C@H](CCC(=O)O)NC(=O)CNC(=O)[C@H](Cc2ccc(O)cc2)NC1=O (YHHYYRALYGELGCG-NH2; linker N-14 via CO)	IL17-RE-IL-17C (Homo sapiens, UniProt Q8NFR9+Q9P0M4)	=	0.254
CC[C@H](C)[C@@H]1NC(=O)[C@H](CCCNC(=N)N)NC(=O)[C@H](Cc2ccc(O)cc2)NC(=O)[C@H](Cc2ccc(O)cc2)NC(=O)[C@H](CC(C)C)NC(=O)[C@H](Cc2c[nH]cn2)NC(=O)[C@H](Cc2ccc(O)cc2)NC(=O)CSC[C@@H](C(=O)NCC(N)=O)NC(=O)CNC(=O)[C@H](CC(C)C)NC(=O)[C@H](CC(N)=O)NC(=O)CNC(=O)[C@H](Cc2ccc(O)cc2)NC(=O)[C@H](CC(C)C)NC1=O ({CH2CO}-YHLYYRILYGNLGCG-NH2; thioether N-14)	IL17-RE-IL-17C (Homo sapiens, UniProt Q8NFR9+Q9P0M4)	=	0.0113
CC[C@H](C)[C@@H]1NC(=O)[C@H](CCCNC(=N)N)NC(=O)[C@H](Cc2ccc(O)cc2)NC(=O)[C@H](Cc2ccc(O)cc2)NC(=O)[C@H](Cc2c[nH]cn2)NC(=O)[C@H](Cc2c[nH]cn2)NC(=O)[C@H](Cc2ccc(O)cc2)NC(=O)CSC[C@@H](C(=O)NCC(N)=O)NC(=O)CNC(=O)[C@H](CC(C)C)NC(=O)[C@H](CCC(=O)O)NC(=O)CNC(=O)[C@H](C)NC(=O)[C@H](CC(C)C)NC1=O ({CH2CO}-YHHYYRILAGELGCG-NH2; thioether N-14)	IL17-RE-IL-17C (Homo sapiens, UniProt Q8NFR9+Q9P0M4)	>	30
CC[C@H](C)[C@@H]1NC(=O)[C@H](Cc2c[nH]cn2)NC(=O)[C@H](Cc2ccc(O)cc2)NC(=O)CSC[C@@H](C(=O)NCC(N)=O)NC(=O)CNC(=O)[C@H](CC(C)C)NC(=O)[C@H](CC(N)=O)NC(=O)CNC(=O)[C@H](Cc2ccc(O)cc2)NC(=O)[C@H](CC(C)C)NC(=O)[C@H](CO)NC(=O)[C@H](C)NC(=O)[C@H](Cc2ccc(O)cc2)NC(=O)[C@H](Cc2ccc(O)cc2)NC1=O ({CH2CO}-YHIYYASLYGNLGCG-NH2; thioether N-14)	IL17-RE-IL-17C (Homo sapiens, UniProt Q8NFR9+Q9P0M4)	=	0.0044
CC[C@H](C)[C@@H]1NC(=O)[C@H](Cc2c[nH]cn2)NC(=O)[C@H](Cc2ccc(O)cc2)NC(=O)CSC[C@@H](C(=O)NCC(N)=O)NC(=O)CNC(=O)[C@H](CC(C)C)NC(=O)[C@H](CC(N)=O)NC(=O)CNC(=O)[C@H](Cc2ccc(O)cc2)NC(=O)[C@H](CC(C)C)NC(=O)[C@H]([C@@H](C)CC)NC(=O)[C@H](CCCNC(=N)N)NC(=O)[C@H](Cc2ccc(O)cc2)NC(=O)[C@H](Cc2ccc(O)cc2)NC1=O ({CH2CO}-YHIYYRILYGNLGCG-NH2; thioether N-14)	IL17-RE-IL-17C (Homo sapiens, UniProt Q8NFR9+Q9P0M4)	=	0.0045
